Values from the supplement of paper PMC10567573

Assay: protein stability index of a GFP-peptide fusion (GPS, HEK-293T) (PSI 1-6); higher = more stable;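 also: 24-mer peptide tiles fused after GFP, lentivirally expressed, FACS-sorted into six equal bins by GFP/DsRed ratio, decoded by Illumina sequencing, PSI is the read-weighted mean bin number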
Settings: treatment: DMSO; c terminus: a fixed tail appended
property: protein stability index
Give only the figure.

Example results:
Need protein stability index of VRRRYSDFEWLRSELERESKVVVP [SNX3] , thanks.
2.17

Now this one: TLIREKSFGACLREETPRMPSWAS [ELOA2]
2.14

Now this one: HQLDFVQVKASSPVPATPILQLEE [TRIM9]
4.54

Now this one: LEDMGQPPAEEAEQPGALAREFLA [FKBP8]
5.15

Now this one: AALSATGPRFLAYFGSFATVGLLW [TMEM175]
3.01

---
Need protein stability index of AGGGGFGGGSLSGGGGSRSISASS [KRT15] , thanks.
3.89

Now this one: RSHEGETAYIRVKVDGPRSPSYGR [SRSF1]
3.83

Now this one: DLEMKEEEEISETGELVGPFVSAM [ZBED2]
5.29

Now this one: VAFVDRADIKQYIGPPSAAAIFKI [TRIP13]
2.82

Now this one: GVILHSLKTQSLEGKRKAFYTCAS [OR4A15]
2.48

Now this one: HFQDNLHSVNRDLNELERLSNLVG [MED27]
3.47

Now this one: RFTTSKLQSFEDLASISTYGFRGE [MLH1]
3.24

Now this one: EQPITDFCSVIRINSTAPFEEQEN [ZNF277]
4.4

* * *

Assay: protein stability index of a GFP-peptide fusion (GPS, HEK-293T) (PSI 1-6); higher = more stable
Conditions: treatment: MLN4924 1 uM, 8 h; c terminus: a fixed tail appended
Classification field: Criterion met = protein stability index at or over 4; Criterion not met = protein stability index under 4.

// below: answered sequences
Hi, just wondering whether CKARMERDGYGMTPLLAASVTGHT [FEM1A] shows protein stability index of 4 or higher.
Criterion not met

Now this one: HGFLFMIFQIGVLGFGPTYVVLAY [SOAT1]
Criterion not met

Now this one: DWASNKVMFKIGDLGHVTRISSPQ [WEE1]
Criterion not met

Now this one: QPSFEPTKNKELTDEFRELRATVE [FADS1]
Criterion met

Now this one: DLTFAPDGSLILVSASRDKTLRVW [WSB1]
Criterion not met

API: the following record is the query input.
Hi, just wondering whether LIISCRKLFYFKIWAFLDVSFVER [FBXO39] shows protein stability index of 4 or higher.
Criterion not met

* * *

Experiment: protein stability index of a GFP-peptide fusion (GPS, HEK-293T) (PSI 1-6); higher = more stable
Details: treatment: DMSO; c terminus: a fixed tail appended
Catalogue of protein stability index readings, one per entry.
Give only the figure.

Need protein stability index of ESKKNRVEINDLDPEVFKEMMRFI [SPOPL] , thanks.
1.55

---
Need protein stability index of QGMIQLALSGASQPGPSGAPAQRA [RETREG3] , thanks.
4.26

Now this one: MAGTNALLMLENFIDGKFLPCSSY [ALDH8A1]
2.19

Now this one: TRTGPSAWETKKILAVSFAPLIQP [PCMTD2]
2.14

Now this one: TRPTQHELRLYKQQVKKLEKALKK [CEP70]
3.23

Now this one: TVFDANDNAPVFTLPEYRVSVPEN [PCDHGA10]
3.53

Now this one: DGIDRWIKEIDEHAPGVPRILVGN [RAB40C]
3.81
